# Tested on: MDA-MB-231 cells
# Method Description: Inhibition of proliferation of triple-negative breast cancer cells, CellTiter-Glo
# Type: cell-based
# Measurement Conditions: Homo sapiens, 120 h; MDA-MB-231, cultured for 5 days
Record form. Attribute: GI50. Fill in for each entry.

Entry Cn1nccc1-c1ccc(Nc2nc(NC3CCC(F)(F)C3)c3c(C#N)c[nH]c3n2)c2c1OCCO2 (stereo not shown) [Example 116] — recorded GI50 = < 100 nM

Measured GI50 of CCOc1cc(-c2nncn2C)ccc1Nc1nc(C2CC2)c2c(C#N)c[nH]c2n1 [Example 46] : > 1000 nM

Record CNc1nc(Nc2ccc(N3CCCC3=O)cc2OC)nc2[nH]cc(C#N)c12 [Example 54] , field GI50: 100 to 1000 nM

GI50 reported for this compound COC[C@@H](C)Nc1nc(Nc2ccc(-c3ccnn3C)c3c2OCCO3)nc2[nH]cc(C#N)c12 [Example 101] : < 100 nM

Short answer for Cn1nccc1-c1ccc(Nc2nc(NC3CCCC3)c3c(C#N)c[nH]c3n2)c2c1OCCO2 [Example 38] : GI50 was < 100 nM

# compound N#Cc1c[nH]c2nc(Nc3ccc(N4CCCCS4(=O)=O)c(F)c3)nc(NC3CCCC3)c12 [Example 57] ; its GI50 = 100 to 1000 nM

GI50 measured on COc1cc(-n2ccnc2C)ccc1Nc1nc(NC2CCOCC2)c2c(C#N)c[nH]c2n1 [Example 93] = < 100 nM

Note to self: GI50 recorded for COc1cc(N2CCCS2(=O)=O)ccc1Nc1nc(NC2CCCC2)c2c(C(F)(F)F)c[nH]c2n1 [Example 176] was 100 to 1000 nM

Lookup result for COc1cc(N2CCCS2(=O)=O)ccc1Nc1nc(NC2CCOCC2)c2c(C#N)c[nH]c2n1 [Example 165] ; measured GI50: < 100 nM

The recorded GI50 for COc1cc(N2CCOCC2=O)ccc1Nc1nc(NC2CCCCC2)c2c(C#N)c[nH]c2n1 [Example 81] is < 100 nM

Briefly, GI50 measured for Cn1nccc1-c1ccc(Nc2nc(NC3CCOCC3)c3c(C#N)c[nH]c3n2)c2c1OCCO2 [Example 40] : < 100 nM

GI50 reading for O=C1CCCN1c1ccc(Nc2nc(NC3CCOCC3)c3c(C(F)(F)F)c[nH]c3n2)c2c1OCCO2 [Example 108] : 100 to 1000 nM

The compound identified as COc1cc(-c2ccnn2C)c(C)cc1Nc1nc(NC2CCCC2)c2c(C#N)c[nH]c2n1 [Example 35] registered its GI50 at 100 to 1000 nM

Entry COc1cc(N2CCCC2=O)ccc1Nc1cc(NC2CCCCC2)c2c(C#N)c[nH]c2n1 [Example 64] — recorded GI50 = < 100 nM

# compound Cn1nccc1-c1ccc(Nc2nc(NC3CCCCC3)c3c(C#N)c[nH]c3n2)c2c1OCCO2 [Example 39] ; its GI50 = < 100 nM

Input COc1cc(-c2cncn2C)ccc1Nc1nc(NC2CCCC2)c2c(C#N)c[nH]c2n1 [Example 30] . Output GI50: < 100 nM
